Biological target: AKT (Homo sapiens, UniProt P31749)
Sequence (P31749 whole entry): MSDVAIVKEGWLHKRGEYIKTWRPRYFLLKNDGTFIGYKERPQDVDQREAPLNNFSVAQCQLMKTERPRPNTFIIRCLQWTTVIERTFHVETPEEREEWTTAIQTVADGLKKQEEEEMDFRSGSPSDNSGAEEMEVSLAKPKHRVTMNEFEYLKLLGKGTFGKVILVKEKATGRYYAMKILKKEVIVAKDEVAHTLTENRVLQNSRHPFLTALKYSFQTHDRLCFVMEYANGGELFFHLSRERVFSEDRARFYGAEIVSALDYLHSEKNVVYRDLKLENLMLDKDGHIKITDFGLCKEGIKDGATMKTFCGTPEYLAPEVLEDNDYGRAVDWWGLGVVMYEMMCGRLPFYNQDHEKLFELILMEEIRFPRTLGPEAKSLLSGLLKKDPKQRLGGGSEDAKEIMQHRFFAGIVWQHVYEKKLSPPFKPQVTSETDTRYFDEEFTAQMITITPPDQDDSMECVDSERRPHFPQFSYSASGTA
Assay: RBC HotSpot kinase assay (33P-ATP, P81 filter-binding), AKT
Format: biochemical
Conditions: Table 28, biochemical kinase assay; read-out: AKT IC50
pIC50: −log10 of the molar value.
Please enter yes (1) where pIC50 is greater than or equal to 6, and no (0) where it is lower.

Cc1cc(-c2ccnc3[nH]cc(Cl)c23)cc(F)c1[C@@]1(O)[C@H](C)CN(C2CCS(=O)(=O)CC2)C[C@@H]1C [Compound 307]: yes (1)
CCN(CC)c1cc(-c2ccnc3[nH]ccc23)ccc1CNC(C)=O [Compound 236]: no (0)

Challenge: Could you verify whether the entry Cc1cc(-c2ccnc3[nH]cc(F)c23)ncc1[C@@]1(O)[C@H](C)CN(Cc2ccncc2)C[C@@H]1C [Compound 52] shows pIC50 of no less than 6?
Response given: no (0)

Challenge: Does CC(C)(O)C#Cc1cc(-c2ccnc3[nH]ccc23)ccc1CNCc1ccc(F)cc1 [Compound 281] have a reported pIC50 of at least 6?
Response given: no (0)

Challenge: Confirm if pIC50 reported for the compound C[C@@H]1CN(C(=O)C2CC(C(F)(F)F)C2)C[C@H](C)C1(O)c1c(F)cc(-c2ccnc3[nH]cc(F)c23)cc1F (some centres unmarked) [Compound 74] is 6 or above.
Response given: no (0)

Challenge: Decide: is the reported value of pIC50 for Cc1cnc(C2(c3ccc(-c4ccnc5[nH]cc(F)c45)cc3)CCNCC2)o1 [Compound 192] equal to or greater than 6?
Response given: yes (1)
